# maps each entry to its protein stability index
B1: TMEM106C (parent)
chain: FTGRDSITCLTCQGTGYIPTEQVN

Variants of: B1
Protocol: protein stability index of a GFP-peptide fusion (GPS, HEK-293T) (PSI 1-6); higher = more stable;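 further: lentivirally expressed fusions sorted by FACS into six bins by GFP to DsRed ratio, PSI derived from sequencing read proportions per bin multiplied by bin number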
Study conditions: c terminus: a fixed tail appended
Measured attribute: protein stability index

{"Sequence variant": "C12W", "Experimental result": 2.51}
{"Sequence variant": "F1L", "Experimental result": 4.16}
{"Sequence variant": "G3S", "Experimental result": 1.46}
